# Lookup of reported pEC50 keyed by entry
test system: TNFα; assay: cells; assay type: cell-based, human; conditions: Homo sapiens, Monocyte, LPS-stimulated human monocytes, TNFα content; read-out: EC50 TNF
Keep in mind that pEC50 stands for -log10 of concentration in molar terms.

In the examples that follow, each entry is paired with its recorded pEC50.
COC(=O)N[C@H]1C[C@@H](Nc2cc(-c3ccc4cc(C#N)cnn34)ncc2C(=O)NC[C@@H](F)C(C)(C)O)C1 [Example 457]	6.43
CC(C)(O)[C@H](F)CNC(=O)c1cnc(-c2ccc3cc(C#N)cnn23)cc1Nc1ccc(-c2cn[nH]c2)cc1 [Example 178]	8.00
CC(C)(O)[C@H](F)CNC(=O)c1cnc(-c2ccc3cc(C#N)cnn23)cc1N[C@H]1CC[C@H](NC(=O)C2(F)CC2)CC1 [Example 422]	7.12
C[C@@H]1CN(c2ncc(Nc3cc(-c4ccc5cc(C#N)cnn45)ncc3C(=O)NC[C@@H](F)C(C)(C)O)cn2)C[C@H](C)O1 [Example 686]	7.70
CC(C)(O)[C@H](F)CNC(=O)c1cnc(-c2ccc3cc(C#N)cnn23)cc1N[C@@H]1C[C@H]2CC[C@@H]1O2 [Example 94]	7.04

[ask] Provide pEC50 value for the following compound: CC(C)(O)[C@H](F)CNC(=O)c1cnc(-c2ccc3cc(C#N)cnn23)cc1Nc1ccc(C#N)cc1 [Example 140]
[reply] 7.24

[ask] Provide pEC50 value for the following compound: CC(C)(O)[C@H](F)CNC(=O)c1cnc(-c2ccc3cc(C#N)cnn23)cc1Nc1cnn(C2CC2)c1 [Example 67]
[reply] 7.37

[ask] Provide pEC50 value for the following compound: N#Cc1cnn2c(-c3cc(NC45CCC(O)(CC4)CC5)c(C(=O)NCCO)cn3)ccc2c1 [Example 745]
[reply] 7.06

====

# Lookup of reported IC50 keyed by entry
biological target: IRAK4 enzyme (Homo sapiens (Human), UniProt Q9NWZ3); test: biochemical; type: biochemical; conditions: IRAK4 enzyme, TR-FRET, 500 μM ATP
Sequence (Q9NWZ3 whole entry): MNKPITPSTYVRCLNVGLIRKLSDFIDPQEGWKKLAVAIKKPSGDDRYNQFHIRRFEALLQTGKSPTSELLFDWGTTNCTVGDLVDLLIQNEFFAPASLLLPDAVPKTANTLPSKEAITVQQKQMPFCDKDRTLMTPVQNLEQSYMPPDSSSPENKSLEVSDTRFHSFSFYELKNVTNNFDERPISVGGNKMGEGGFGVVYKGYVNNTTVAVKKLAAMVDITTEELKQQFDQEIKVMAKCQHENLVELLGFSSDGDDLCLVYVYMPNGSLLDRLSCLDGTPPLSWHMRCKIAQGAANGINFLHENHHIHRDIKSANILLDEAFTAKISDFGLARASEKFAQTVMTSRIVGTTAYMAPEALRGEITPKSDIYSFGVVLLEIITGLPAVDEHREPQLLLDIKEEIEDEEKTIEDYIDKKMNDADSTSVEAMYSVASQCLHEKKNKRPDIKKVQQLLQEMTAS
Provide only the numeric value, understood in nM.

In the examples that follow, each entry is paired with its recorded IC50.
COC(=O)N1CC[C@H](CNc2cc(-c3ccc4cc(C#N)cnn34)ncc2C(=O)NC[C@@H](F)C(C)(C)O)C1 [Example 900]	2
CNC(=O)O[C@H]1C[C@@H](Nc2cc(-c3ccc4cc(C#N)cnn34)ncc2C(=O)NC[C@@H](F)C(C)(C)O)C1 [Example 351]	2
CC(C)(O)[C@H](F)CNC(=O)c1cnc(-c2ccc3cc(C#N)cnn23)cc1NC1CC2CCC(C1)N2 (some centres unmarked) [Example 24]	2
CC(=O)N[C@@H]1CC[C@@H](Nc2cc(-c3ccc4cc(C#N)cnn34)ncc2C(=O)NC[C@@H](F)C(C)(C)O)C1 [Example 306]	3
CCn1cnc(Nc2cc(-c3ccc4cc(C#N)cnn34)ncc2C(=O)NC[C@@H](F)C(C)(C)O)n1 [Example 128]	1

Lab note: next molecule to report on.
[ask] Report IC50 from IRAK4 enzyme (Homo sapiens (Human), UniProt Q9NWZ3) testing of COC(=O)N1CC(CNc2cc(-c3ccc4cc(C#N)cnn34)ncc2C(=O)NC[C@@H](F)C(C)(C)O)C1 [Example 906]
[reply] 10

====

test system: TNFα; assay: cells; format: cell-based, human; details: Homo sapiens, Monocyte, LPS-stimulated human monocytes, TNFα content; read-out: EC50 TNF
METRIC: pEC50
Keep in mind that pEC50 stands for -log10 of concentration in molar terms.

In the examples that follow, each entry is paired with its recorded pEC50.
CC(C)(O)[C@H](F)CNC(=O)c1cnc(-c2ccc3cc(C#N)cnn23)cc1Nc1cnn([C@H]2CCOC2)c1 [Example 237]	7.64
CC(C)(O)[C@H](F)CNC(=O)c1cnc(-c2ccc3cc(C#N)cnn23)cc1Nc1ccc2cn[nH]c2c1 [Example 574]	7.24
CC(C)(O)[C@H](F)CNC(=O)c1cnc(-c2ccc3cc(C#N)cnn23)cc1N[C@H]1CCC[C@H]1O [Example 261]	7.39

[ask] Provide pEC50 value for the following compound: COCCNC(=O)CNC(=O)c1cnc(-c2ccc3cc(C#N)cnn23)cc1NC12CCC(O)(CC1)CC2 [Example 786]
[reply] 6.49

[ask] Provide pEC50 value for the following compound: CC(C)(O)[C@H](F)CNC(=O)c1cnc(-c2ccc3cc(C#N)cnn23)cc1N[C@H]1C[C@H](CNC(=O)[C@@H]2C[C@H]2F)C1 [Example 659]
[reply] 7.80

[ask] Provide pEC50 value for the following compound: CC(C)(O)[C@H](F)CNC(=O)c1cnc(-c2ccc3cc(C#N)cnn23)cc1N[C@H]1C[C@H](CNC(=O)C2CC2)C1 [Example 534]
[reply] 7.59

[ask] Provide pEC50 value for the following compound: CC(C)(O)[C@H](F)CNC(=O)c1cnc(-c2ccc3cc(C#N)cnn23)cc1Nc1ccc(-n2cnnc2)cc1 [Example 772]
[reply] 7.85

[ask] Provide pEC50 value for the following compound: CC(C)(O)[C@H](F)CNC(=O)c1cnc(-c2ccc3cc(C#N)cnn23)cc1N[C@H]1CC[C@H](N2CCC(F)(F)C2)CC1 [Example 723]
[reply] 6.10

====

target: IRAK4 enzyme (Homo sapiens (Human)); assay: biochemical; type: biochemical; conditions: IRAK4 enzyme, TR-FRET (HTRF), 500 μM ATP
# Lookup of reported IC50 keyed by entry

In the examples that follow, each entry is paired with its recorded IC50.
N#CCNC(=O)c1cnc(-c2ccc3cc(C#N)cnn23)cc1NC1CC1 [Example 461]	< 1 nM
COC(=O)NCCC(C)(C)Nc1cc(-c2ccc3cc(C#N)cnn23)ncc1C(=O)NC[C@@H](F)C(C)(C)O [Example 721]	1 nM
CCOc1cc(Nc2cc(-c3ccc4cc(C#N)cnn34)ncc2C(=O)NC[C@@H](F)C(C)(C)O)cnc1-c1cnco1 [Example 635]	8 nM

Lab note: next compound to report on.
[ask] Report IC50 from IRAK4 enzyme (Homo sapiens (Human)) testing of CC(C)(O)[C@H](F)CNC(=O)c1cnc(-c2ccc3cc(C#N)cnn23)cc1Nc1ccc(F)cn1 [Example 687]
[reply] < 1 nM

====

test system: TNFα; test: cells; type: cell-based, human; details: Homo sapiens, Monocyte, LPS-stimulated human monocytes, TNFα by TR-FRET; read-out: EC50 TNF
# Lookup of reported EC50 keyed by entry
Provide only the numeric value, understood in µM.

In the examples that follow, each entry is paired with its recorded EC50.
COC(=O)NC1CCN(c2ccc(Nc3cc(-c4ccc5cc(C#N)cnn45)ncc3C(=O)NC[C@@H](F)C(C)(C)O)cn2)CC1	0.084
N#CCNC(=O)c1cnc(-c2ccc3cc(C#N)cnn23)cc1Nc1cnn([C@H]2CCNC2)c1	0.048
CN(C)C(=O)CCNC(=O)c1cnc(-c2ccc3cc(C#N)cnn23)cc1NC12CCC(O)(CC1)CC2	0.048

[ask] Provide EC50 value for the following compound: "CC(=O)NC1CCN(c2ccc(Nc3cc(-c4ccc5cc(C#N)cnn45)ncc3C(=O)NC[C@@H](F)C(C)(C)O)cn2)CC1"
[reply] 0.058

[ask] Provide EC50 value for the following compound: "CCCc1nccc(Nc2cc(-c3ccc4cc(C#N)cnn34)ncc2C(=O)NC[C@@H](F)C(C)(C)O)n1"
[reply] 0.137

[ask] Provide EC50 value for the following compound: "CC(C)(O)[C@H](F)CNC(=O)c1cnc(-c2ccc3cc(C#N)cnn23)cc1Nc1cnc(-c2cn[nH]c2)cn1"
[reply] 0.012

[ask] Provide EC50 value for the following compound: "COC(=O)N1CC[C@@H]1CNc1cc(-c2ccc3cc(C#N)cnn23)ncc1C(=O)NC[C@@H](F)C(C)(C)O"
[reply] 0.217

====

# Lookup of reported pIC50 keyed by entry
target: IRAK4 enzyme (Homo sapiens (Human), UniProt Q9NWZ3); test: biochemical; assay type: biochemical; details: IRAK4 enzyme, TR-FRET, 500 μM ATP
Keep in mind that pIC50 stands for -log10 of concentration in molar terms.

In the examples that follow, each entry is paired with its recorded pIC50.
CC(C)(O)[C@H](F)CNC(=O)c1cnc(-c2ccc3cc(C#N)cnn23)cc1Nc1ccc2nccn2c1	9.00
N#Cc1cnn2c(-c3cc(NC45CCC(O)(CC4)CC5)c(C(=O)NC4(C(F)F)CC4)cn3)ccc2c1	8.70

Lab note: next molecule to report on.
[ask] Report pIC50 from IRAK4 enzyme (Homo sapiens (Human), UniProt Q9NWZ3) testing of "COC(=O)N1CCN(c2ccc(Nc3cc(-c4ccc5cc(C#N)cnn45)ncc3C(=O)NC[C@@H](F)C(C)(C)O)cn2)CC1"
[reply] 9.00

====

# Lookup of reported IC50 keyed by entry
target: IRAK4 enzyme (Homo sapiens (Human), UniProt Q9NWZ3); experiment: biochemical; type: biochemical; conditions: IRAK4 enzyme, TR-FRET, 500 μM ATP
Provide only the numeric value, understood in nM.

Cn1nccc1CNC(=O)c1cnc(-c2ccc3cc(C#N)cnn23)cc1NC12CCC(O)(CC1)CC2 [Example 934]	3

[ask] Report IC50 from IRAK4 enzyme (Homo sapiens (Human), UniProt Q9NWZ3) testing of CC(C)(O)[C@H](F)CNC(=O)c1cnc(-c2ccc3cc(C#N)cnn23)cc1Nc1ccc(N2CCCC2)nc1 [Example 877]
[reply] 2

[ask] Report IC50 from IRAK4 enzyme (Homo sapiens (Human), UniProt Q9NWZ3) testing of CC(C)Nc1cc(-c2ccc3cc(C#N)cnn23)ncc1C(=O)NCc1ccc(=O)[nH]c1 [Example 157]
[reply] 23

[ask] Report IC50 from IRAK4 enzyme (Homo sapiens (Human), UniProt Q9NWZ3) testing of C[C@H](NC(=O)c1cnc(-c2ccc3cc(C#N)cnn23)cc1NC12CCC(O)(CC1)CC2)C(=O)N1CC(F)(F)C1 [Example 942]
[reply] 8

[ask] Report IC50 from IRAK4 enzyme (Homo sapiens (Human), UniProt Q9NWZ3) testing of CC(C)(O)[C@H](F)CNC(=O)c1cnc(-c2ccc3cc(C#N)cnn23)cc1Nc1cnn([C@@H]2CCN(C3COC3)C2)c1 [Example 206]
[reply] 1

Numbers sourced from patent US10336762B2.
